Measured GI50 of individual entries
Test system: K562
measurement_protocol: NCI tumour cell line growth inhibition, 48 h
Active and inactive are the calls of the source. No stated cut-off is given here; in the data, active = GI50 up to about 1.1 µM and inactive = higher.

Answered examples (2):
[[record]]
compound = "COC(=O)C1CCc2c(OC)ccc(OC)c2C1=O (stereo unspecified)"
result = "> 100 µM (inactive)"

[[record]]
compound = "NC(CCC(=O)NC(CSSCCCCS(=O)O)C(=O)NCC(=O)O)C(=O)O (stereo unspecified)"
result = "> 100 µM (inactive)"


Reported GI50 ( CC(C)OC1OC(CO)C(O)CC1n1cc(F)c(=O)[nH]c1=O (stereo unspecified) ) = 34.4 µM (inactive)

Reported GI50 ( N#CC(C(=O)CCC(=O)C(C#N)c1ccccc1)c1ccccc1 (stereo unspecified) ) = > 100 µM (inactive)

Reported GI50 ( Oc1ccc(Cl)cc1/C=N/c1cnc2ccccc2c1 ) = 10.2 µM (inactive)

Reported GI50 ( CC(=O)OCC1OC(N2C(=O)[C@@H](Oc3ccccc3)[C@H]2/C=C/c2ccccc2)C(OC(C)=O)C(OC(C)=O)C1OC(C)=O (stereo partly specified) ) = > 100 µM (inactive)

Reported GI50 ( Clc1ccc2c(NC3CCC(N4CCCCC4)CC3)ccnc2c1 (stereo unspecified) ) = 3.3 µM (inactive)

Reported GI50 ( O=C(c1ccco1)N(Cc1cccnc1)C(=S)N(Cc1cccnc1)C(=O)c1ccco1 ) = 4.84 µM (inactive)

Reported GI50 ( C[N+](C)(CCCCCC[N+](C)(C)CCCN1C(=O)c2cccc3cccc(c23)C1=O)CCCN1C(=O)c2cccc3cccc(c23)C1=O ) = > 100 µM (inactive)

Reported GI50 ( [N-]=[N+]=Nc1c(Br)c(=O)[nH]c(=O)n1COCCO ) = > 100 µM (inactive)
